- EXPERIMENT SUMMARY: Total Fluorescence Counterscreen for Inhibitors of the Interaction of Thyroid Hormone Receptor and Steroid Receptor Coregulator 2
- PARTICULARS: TRb/SRC2 Texas Red total fluorescence interference; series mostly up to 201 µM
About 820 (0.29%) of roughly 280,000 compounds were called active. About 1% were inconclusive and are not listed. Only a selection was taken, and actives are over-represented in it overall.

[
  {
    "COMPOUND": "CCOP(OCC)OCC",
    "outcome": "inactive"
  },
  {
    "COMPOUND": "CCC(C)(C)c1ccc(O)c(C(C)(C)CC)c1",
    "outcome": "inactive"
  },
  {
    "COMPOUND": "Fc1ccc(Oc2ccnc3cc(Cl)cc(Cl)c23)cc1",
    "outcome": "inactive"
  },
  {
    "COMPOUND": "CCC/C(=N\\OCC)C1=C(O)CC(CC(C)SCC)CC1=O (stereo not given)",
    "outcome": "inactive"
  },
  {
    "COMPOUND": "Clc1ccc([C@@]2(Cn3cncn3)C[C@H](Br)CO2)c(Cl)c1",
    "outcome": "inactive"
  }
]
